# TEST_SYSTEM: T1, Mouse Id2: Histidine (mouse, UniProt P41136 1-134, limits assumed)
# T1 construct: Fusion protein made in E. coli from vector pGW07; also called m-Id2: His; not shown: His tag
# T1 sequence (looked up): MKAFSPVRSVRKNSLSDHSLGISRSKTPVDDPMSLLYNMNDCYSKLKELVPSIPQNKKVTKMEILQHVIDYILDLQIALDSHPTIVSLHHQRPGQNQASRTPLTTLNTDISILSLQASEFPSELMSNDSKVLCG
# TEST_PROTOCOL: ELISA, Ab 0.050 µg/ml
Provide the reported A450 of each item.
Put down the number, then write its unit next to it.

Query: What value of measured A450 is listed for rabbit monoclonal anti-mouse/human Id3, clone #BCH-4/#42-1 (antibody, V domains shown, Rabbit IgG from a rabbit hybridoma; also called m/h Id3 MoAb 42-1) VH: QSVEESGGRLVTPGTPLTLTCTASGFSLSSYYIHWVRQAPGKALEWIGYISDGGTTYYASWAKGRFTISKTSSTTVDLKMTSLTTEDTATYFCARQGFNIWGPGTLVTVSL VL: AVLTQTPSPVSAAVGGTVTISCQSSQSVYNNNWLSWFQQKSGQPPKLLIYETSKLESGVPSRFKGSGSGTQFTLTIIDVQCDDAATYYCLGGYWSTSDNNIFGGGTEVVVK ?
Result: 0.051 A450

Query: What value of measured A450 is listed for rabbit monoclonal anti-mouse/human Id3, clone #BCH-4/#17-3 (antibody, V domains shown, Rabbit IgG from a rabbit hybridoma; also called m/h Id3 MoAb 17-3; BCH-3/#17-3) VH: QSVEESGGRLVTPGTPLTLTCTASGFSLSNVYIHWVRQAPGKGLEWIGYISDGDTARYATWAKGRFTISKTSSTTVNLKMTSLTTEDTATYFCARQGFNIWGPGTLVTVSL VL: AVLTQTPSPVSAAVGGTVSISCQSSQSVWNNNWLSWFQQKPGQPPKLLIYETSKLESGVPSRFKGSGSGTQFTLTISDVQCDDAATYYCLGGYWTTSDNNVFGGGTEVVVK ?
Result: 0.054 A450

Query: What value of measured A450 is listed for rabbit monoclonal anti-human Id3, clone #BCH-4/#3-3 (antibody, V domains shown, Rabbit IgG from a rabbit hybridoma; also called h Id3 MoAb 3-3) VH: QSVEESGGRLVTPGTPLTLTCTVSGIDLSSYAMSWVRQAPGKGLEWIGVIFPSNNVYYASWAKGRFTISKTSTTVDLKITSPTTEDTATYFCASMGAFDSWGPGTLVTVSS VL: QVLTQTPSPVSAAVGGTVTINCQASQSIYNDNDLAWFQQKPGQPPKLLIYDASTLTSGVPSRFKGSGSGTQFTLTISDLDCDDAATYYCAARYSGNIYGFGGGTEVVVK ?
Result: 0.048 A450

Query: What value of measured A450 is listed for rabbit monoclonal anti-mouse/human Id3, clone #BCH-4/#16-1 (antibody, V domains shown, Rabbit IgG from a rabbit hybridoma; also called m/h Id3 MoAb 16-1) VH: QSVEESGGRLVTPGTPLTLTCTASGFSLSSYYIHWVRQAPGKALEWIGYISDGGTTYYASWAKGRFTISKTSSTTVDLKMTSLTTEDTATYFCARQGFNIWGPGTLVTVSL VL: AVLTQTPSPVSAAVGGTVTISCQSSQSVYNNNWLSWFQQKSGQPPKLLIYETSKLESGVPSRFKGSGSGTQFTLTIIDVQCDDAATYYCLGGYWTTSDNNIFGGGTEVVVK ?
Result: 0.051 A450

Query: What value of measured A450 is listed for rabbit monoclonal anti-mouse/human Id3, clone #BCH-4/#6-1 (antibody, V domains shown, Rabbit IgG from a rabbit hybridoma; also called m/h Id3 MoAb 6-1) VH: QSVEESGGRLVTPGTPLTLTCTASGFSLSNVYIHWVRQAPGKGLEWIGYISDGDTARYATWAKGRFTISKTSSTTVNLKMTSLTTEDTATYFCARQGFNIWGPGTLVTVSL VL: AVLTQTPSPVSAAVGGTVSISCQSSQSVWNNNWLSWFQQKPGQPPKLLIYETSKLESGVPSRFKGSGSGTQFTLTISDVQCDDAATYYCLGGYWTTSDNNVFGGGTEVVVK ?
Result: 0.051 A450
